Attribution: the supplement of paper PMC11451515

# Test system: NOMO1
# assay procedure: cell viability relative to DMSO control; higher = less cytotoxic
# test context: RPMI 5 mM glucose + 10% dialyzed FBS; 48 h; 1.71 µM
value kind: cell viability (%)

[
  {
    "molecule": "Oc1cccc(-c2nc(N3CCOCC3)c3oc4ncccc4c3n2)c1",
    "unit of measure": "%",
    "observed measurement": 77.7
  },
  {
    "molecule": "CN(C)CC[C@H](c1ccc(Cl)cc1)c1ccccn1",
    "unit of measure": "%",
    "observed measurement": 89.5
  },
  {
    "molecule": "CC1=C(CC(=O)O)c2cc(F)ccc2/C1=C\\c1ccc([S+](C)[O-])cc1 (stereo not drawn)",
    "unit of measure": "%",
    "observed measurement": 109
  },
  {
    "molecule": "CC[C@@]1(O)C(=O)OCC/2=C1/C=C3\\N(CC4=CC5=CC(=CC=C5N=C34)O)C2=O",
    "unit of measure": "%",
    "observed measurement": 25.8
  },
  {
    "molecule": "C=CC(=O)Nc1cccc(Nc2nc(NC3CCC(N(C)C)CC3)nc3c2ncn3C(C)C)c1 (stereo not drawn)",
    "unit of measure": "%",
    "observed measurement": 72.9
  },
  {
    "molecule": "COc1ncnc(N[S+](=O)([O-])c2ccc(N)cc2)c1OC",
    "unit of measure": "%",
    "observed measurement": 108
  },
  {
    "molecule": "CC(C)C[C@H](NC(=O)CNC(=O)c1cc(Cl)ccc1Cl)B(O)O",
    "unit of measure": "%",
    "observed measurement": 8.85
  },
  {
    "molecule": "O=C\\1N(N\\C=C1[N]2C=CN=N2)C3=NC=NC(=C3)N4CCOCC4",
    "unit of measure": "%",
    "observed measurement": 19.6
  },
  {
    "molecule": "CC[C@@]1(O)C(=O)OC\\C2=C1\\C=C\\3N(CC4=C3N=C5C=CC=CC5=C4)C2=O",
    "unit of measure": "%",
    "observed measurement": 27.5
  },
  {
    "molecule": "O=C(Cc1ccc(-c2ccc(OCCN3CCOCC3)cc2)cn1)NCc1ccccc1",
    "unit of measure": "%",
    "observed measurement": 41.7
  },
  {
    "molecule": "CC1(C)CNc2cc(NC(=O)c3cccnc3NCc3ccncc3)ccc21",
    "unit of measure": "%",
    "observed measurement": 115
  },
  {
    "molecule": "CC(/C=C/C(=O)NO)=C\\[C@@H](C)C(=O)c1ccc(N(C)C)cc1",
    "unit of measure": "%",
    "observed measurement": 65
  },
  {
    "molecule": "Cc1cc(Nc2cc(CN3CCOCC3)c3nc(C)c(Cc4ccc(Cl)cc4F)n3n2)[nH]n1",
    "unit of measure": "%",
    "observed measurement": 97.3
  },
  {
    "molecule": "CCCCC(C=O)NC(=O)C(CC(C)C)NC(=O)OCc1ccccc1 (stereo not drawn)",
    "unit of measure": "%",
    "observed measurement": 82.2
  },
  {
    "molecule": "CN(C)CCN(C)C(=O)c1ccc(NC(=O)Nc2ccc(-c3nc(N4CCOCC4)c4ccn(CC(F)(F)F)c4n3)cc2)cc1",
    "unit of measure": "%",
    "observed measurement": 67.4
  },
  {
    "molecule": "CCC\\C1=C\\C(=O)NC(=S)N1",
    "unit of measure": "%",
    "observed measurement": 123
  },
  {
    "molecule": "c1ccc(CNc2nc(N3CCOc4ccccc43)nc3c2CCCC3)cc1",
    "unit of measure": "%",
    "observed measurement": 109
  },
  {
    "molecule": "C[C@H]1[C@@H](C(=O)C[C@H]2O[C@@H]3O[C@]4(C)CC[C@H]5[C@H](C)CC[C@@H]([C@H]2C)[C@@]35OO4)O[C@@H]2O[C@]3(C)CC[C@H]4[C@H](C)CC[C@@H]1[C@@]24OO3",
    "unit of measure": "%",
    "observed measurement": 95.2
  }
]

* * *

# System: NOMO1
# assay procedure: cell viability relative to DMSO control; higher = less cytotoxic
# test context: HPLM + 10% dialyzed FBS; 48 h; 0.00234 µM
value kind: cell viability (%)

[
  {
    "smiles code": "NC(=O)c1cccc2cn(-c3ccc([C@@H]4CCCNC4)cc3)nc12",
    "value kind": "cell viability",
    "observed measurement": 97.4
  },
  {
    "smiles code": "Nc1nc(N)c2nc(-c3cccc(O)c3)c(-c3cccc(O)c3)nc2n1",
    "value kind": "cell viability",
    "observed measurement": 135
  },
  {
    "smiles code": "C[S+](=O)([O-])c1ccc(-c2cnc(N)c(C(=O)Nc3ccccc3)n2)cc1",
    "value kind": "cell viability",
    "observed measurement": 119
  },
  {
    "smiles code": "c1ccc(CNc2nc(N3CCOc4ccccc43)nc3c2CCCC3)cc1",
    "value kind": "cell viability",
    "observed measurement": 97.2
  },
  {
    "smiles code": "C[C@]12CC[C@H]3[C@@H](CCC/4=C/C(=O)CC[C@]34C)[C@@H]1CC[C@@H]2O",
    "value kind": "cell viability",
    "observed measurement": 113
  }
]

* * *

# Tested on: NOMO1
# assay procedure: cell viability relative to DMSO control; higher = less cytotoxic
# test context: RPMI 5 mM glucose + 10% dialyzed FBS; 48 h; 0.0632 µM

[
  {
    "compound": "C[C@]12CC[C@H]3[C@@H](C\\C=C/4C[C@@H](O)CC[C@]34C)[C@@H]1CCC2=O",
    "unit of measure": "%",
    "cell viability": 118
  },
  {
    "compound": "Cc1ccc([S+](=O)([O-])Nc2nc3ccccc3nc2Nc2ccc3nsnc3c2)cc1",
    "unit of measure": "%",
    "cell viability": 111
  },
  {
    "compound": "Nc1nnc(-c2cccc(Cl)c2Cl)c(N)n1",
    "unit of measure": "%",
    "cell viability": 96.2
  },
  {
    "compound": "COc1ccc(Nc2nccc(NCCO)n2)cc1",
    "unit of measure": "%",
    "cell viability": 73.8
  },
  {
    "compound": "CN1\\C(=C(\\O)C2=C(C=CC=C2)[S+]1([O-])=O)C(=O)NC3=CC=CC=N3",
    "unit of measure": "%",
    "cell viability": 113
  },
  {
    "compound": "c1ccc(CNc2nc(N3CCOc4ccccc43)nc3c2CCCC3)cc1",
    "unit of measure": "%",
    "cell viability": 112
  },
  {
    "compound": "COC1=CC=C(C=C1O)C/2=C/C(=O)C3=C(O2)C=C(O)C=C3O",
    "unit of measure": "%",
    "cell viability": 105
  },
  {
    "compound": "Cc1cc(Nc2cc(CN3CCOCC3)c3nc(C)c(Cc4ccc(Cl)cc4F)n3n2)[nH]n1",
    "unit of measure": "%",
    "cell viability": 115
  },
  {
    "compound": "CC(C)C[C@H](NC(=O)CNC(=O)c1cc(Cl)ccc1Cl)B(O)O",
    "unit of measure": "%",
    "cell viability": 96.9
  },
  {
    "compound": "NC(=O)c1cccc2cn(-c3ccc([C@@H]4CCCNC4)cc3)nc12",
    "unit of measure": "%",
    "cell viability": 108
  },
  {
    "compound": "C/C(O)=C(\\C#N)C(=O)Nc1cc(Br)ccc1Br",
    "unit of measure": "%",
    "cell viability": 94.1
  },
  {
    "compound": "NCCCCNCCCN",
    "unit of measure": "%",
    "cell viability": 107
  },
  {
    "compound": "CC/1=C(/C(CC(=O)N1)C2=CC=C(C=C2)C(F)(F)F)C(=O)NC3=C(F)C=C4[NH]N=CC4=C3 (centres undefined)",
    "unit of measure": "%",
    "cell viability": 95
  },
  {
    "compound": "ClC1=CC\\2=C(NC(=O)\\C(=C2N[C@@H]3CN4CCC3CC4)C5=NC6=C([NH]5)C=CC=C6)C=C1",
    "unit of measure": "%",
    "cell viability": 117
  },
  {
    "compound": "O=C(Nc1ncc(SCCN2CCCC2)s1)[C@]1(c2ccc([S+](=O)([O-])C3CC3)cc2)C[C@H]1C1CCCCC1",
    "unit of measure": "%",
    "cell viability": 124
  },
  {
    "compound": "CC(C)c1ccc(Cn2ccc3c4c(N)nc(NC5CC5)nc4ccc32)cc1",
    "unit of measure": "%",
    "cell viability": 133
  },
  {
    "compound": "O=C\\1N(N\\C=C1[N]2C=CN=N2)C3=NC=NC(=C3)N4CCOCC4",
    "unit of measure": "%",
    "cell viability": 72.9
  },
  {
    "compound": "ClC1=CC\\2=C(OC3=C(C=CC=C3)\\N=C2N4CCNCC4)C=C1",
    "unit of measure": "%",
    "cell viability": 92.1
  },
  {
    "compound": "O=C(Cc1ccc(-c2ccc(OCCN3CCOCC3)cc2)cn1)NCc1ccccc1",
    "unit of measure": "%",
    "cell viability": 62.5
  },
  {
    "compound": "CC[C@]12\\C=C/CN3CC[C@]4([C@@H](N(C)C5=CC(=C(C=C45)[C@]6(C[C@H]7C[C@H](CN(C7)CC8=C6[NH]C9=C8C=CC=C9)C(C)(F)F)C(=O)OC)OC)[C@](O)([C@@H]1OC(C)=O)C(=O)OC)[C@H]23",
    "unit of measure": "%",
    "cell viability": 57.5
  },
  {
    "compound": "CC[C@@]1(O)C(=O)OCC/2=C1/C=C3\\N(CC4=CC5=CC(=CC=C5N=C34)O)C2=O",
    "unit of measure": "%",
    "cell viability": 121
  },
  {
    "compound": "CN(C)c1nc(Cc2ccc(NC(=O)c3ccc4ccccc4c3)cc2)nc(Cl)c1CC(=O)O",
    "unit of measure": "%",
    "cell viability": 111
  },
  {
    "compound": "CC1(C)CNc2cc(NC(=O)c3cccnc3NCc3ccncc3)ccc21",
    "unit of measure": "%",
    "cell viability": 107
  },
  {
    "compound": "CC(O)(C#Cc1ccc2c(c1)N(c1nc(N)ncc1Cl)CC2)c1nccs1 (centres undefined)",
    "unit of measure": "%",
    "cell viability": 135
  }
]
